biological target: human recombinant ETB receptors (Homo sapiens); construct: expressed in transfected cells; host or cells: CHO cells (microsomal membranes); assay: Inhibition of endothelin binding to membranes from CHO cells carrying human ET receptors (ETB)
Sequence (P24530 27-442): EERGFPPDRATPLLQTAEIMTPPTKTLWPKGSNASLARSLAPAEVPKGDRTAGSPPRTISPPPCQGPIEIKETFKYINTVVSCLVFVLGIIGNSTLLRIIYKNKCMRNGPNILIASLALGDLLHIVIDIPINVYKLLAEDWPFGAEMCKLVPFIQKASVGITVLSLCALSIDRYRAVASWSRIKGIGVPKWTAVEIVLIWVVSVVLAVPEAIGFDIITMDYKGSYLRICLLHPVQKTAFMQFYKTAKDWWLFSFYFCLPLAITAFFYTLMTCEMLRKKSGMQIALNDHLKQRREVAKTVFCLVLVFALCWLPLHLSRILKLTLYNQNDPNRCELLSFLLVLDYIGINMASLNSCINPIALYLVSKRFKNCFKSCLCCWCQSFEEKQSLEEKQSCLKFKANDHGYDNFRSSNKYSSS
PARAMETER_MEASURED: IC50
Express your answer as a number followed by its unit.

Cc1cc(C)nc(O[C@H](C(=O)O)[C@@]2(c3ccccc3)NCc3nnc(CC(=O)O)n3-c3ccccc32)n1 (racemic): 0.126 µM

Incoming: Which IC50 value belongs to Cc1cc(C)nc(O[C@H](C(=O)O)[C@@]2(c3ccccc3)NCC(=O)N(CCO)c3ccccc32)n1 (racemic) ?
Outgoing: 0.083 µM

----------
Target: rat tracheal rings (ETB receptors) (Rattus norvegicus, UniProt P21451)
Construct: from tissue; host or cells: tracheal rings of adult Wistar rats, epithelium removed
Sequence (P21451 27-442): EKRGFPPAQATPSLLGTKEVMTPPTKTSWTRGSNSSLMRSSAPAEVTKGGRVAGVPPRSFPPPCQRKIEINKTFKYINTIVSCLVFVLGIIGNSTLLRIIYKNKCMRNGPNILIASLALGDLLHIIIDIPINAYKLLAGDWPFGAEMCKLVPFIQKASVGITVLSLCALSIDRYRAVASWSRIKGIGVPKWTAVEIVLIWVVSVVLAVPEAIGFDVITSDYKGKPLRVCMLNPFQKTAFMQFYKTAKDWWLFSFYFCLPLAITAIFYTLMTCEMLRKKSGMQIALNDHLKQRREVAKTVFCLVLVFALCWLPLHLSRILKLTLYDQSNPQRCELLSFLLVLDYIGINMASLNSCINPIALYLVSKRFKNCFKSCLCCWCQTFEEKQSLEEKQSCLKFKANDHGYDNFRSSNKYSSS
Test: Inhibition of sarafotoxin S6c-induced contractions on isolated rat tracheal rings
The following molecules are listed with their measured Kb values.
Numeric only. Scale: nM

COc1cc(OC)nc(O[C@H](C(=O)O)[C@@]2(c3ccccc3)NCC(=O)N(Cc3c(F)cc(F)cc3F)c3ccccc32)n1 (racemic): 525
Cc1cc(C)nc(O[C@H](C(=O)O)[C@@]2(c3cccc(-c4ccccc4)c3)NCC(=O)N(Cc3c(F)cc(F)cc3F)c3ccccc32)n1 (racemic): 85.1
Cc1cc(C)nc(O[C@H](C(=O)O)[C@@]2(c3ccccc3)NCC(=O)N(Cc3c(F)cc(F)cc3F)c3ccccc32)n1 (racemic): 661

Please find the next molecule below.
Incoming: Which Kb value belongs to Cc1cc(C)nc(O[C@H](C(=O)O)[C@@]2(c3ccccc3)NCC(=O)N(Cc3c(Cl)cccc3Cl)c3ccccc32)n1 (racemic) ?
Outgoing: 27.5

----------
target: human recombinant ETA receptors (Homo sapiens, UniProt P25101); construct: expressed in transfected cells; host or cells: CHO cells (microsomal membranes); assay: Inhibition of endothelin binding to membranes from CHO cells carrying human ET receptors (ETA); settings: read-out: IC50 ETA
Sequence (P25101 21-427): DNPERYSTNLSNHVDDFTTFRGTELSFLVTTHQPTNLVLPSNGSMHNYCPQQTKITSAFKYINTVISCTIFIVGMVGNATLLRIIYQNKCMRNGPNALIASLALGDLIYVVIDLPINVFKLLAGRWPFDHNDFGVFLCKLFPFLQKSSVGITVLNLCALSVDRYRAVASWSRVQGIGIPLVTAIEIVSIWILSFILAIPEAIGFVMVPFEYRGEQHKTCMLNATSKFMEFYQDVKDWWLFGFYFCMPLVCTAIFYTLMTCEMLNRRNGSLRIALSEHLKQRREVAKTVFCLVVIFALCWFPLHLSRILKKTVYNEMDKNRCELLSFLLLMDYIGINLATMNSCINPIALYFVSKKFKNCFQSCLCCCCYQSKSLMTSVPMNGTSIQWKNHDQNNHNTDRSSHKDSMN
The following compounds are listed with their measured IC50 values.
Numeric only. Scale: nM

Below, 2 compounds whose answers are already recorded.
COc1ccc(CN2C(=O)CN[C@](c3ccc(F)c(C)c3)([C@H](Oc3nc(C)cc(C)n3)C(=O)O)c3ccccc32)cc1 (racemic) [Example 218]: 5
Cc1cccc([C@]2([C@H](Oc3nc(C)cc(C)n3)C(=O)O)NCC(=O)N(C)c3ccccc32)c1 (racemic) [Example 187]: 18

Please find the next compound below.
Incoming: Which IC50 value belongs to COC(=O)c1ccc(CN2C(=O)CN[C@](c3ccccc3)([C@H](Oc3nc(C)cc(C)n3)C(=O)O)c3ccccc32)cc1 (racemic) [Example 58] ?
Outgoing: 2
